Origin of values: PubChem BioAssay (NCI)

Measured growth inhibition by item
# experiment notes: NCI Yeast Anticancer Drug Screen. Data for the wt1 strain (AID 149);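 note: 0% = growth of vehicle-treated wt1 cultures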
# stated conditions: S. cerevisiae wt1 strain (SPY 50644) growth inhibition; at 3.7 µM; hits give high values
The panel holds about 79,000 compounds, 15% with a hit somewhere; the sample as a whole holds those more often.
Use % as the unit, but write only the number.

Tell me the measured growth inhibition of Cc1ccccc1NC(=O)Cc1csc(N/N=C2\NC(=O)/C(=C/c3cccc([N+](=O)[O-])c3)S2)n1 , please.
6

Tell me the measured growth inhibition of CCOC(=O)C1=C(C)NC(C)=C(C(=O)OCC)C1c1ccc(C)cc1 , please.
19

Tell me the measured growth inhibition of N#C/C(=C1C=C(Br)/C(=N\O)C=C\1Cl)c1cccc2ccccc12 , please.
4

Tell me the measured growth inhibition of CCC(=O)Oc1ccc(/C=N/NC(N)=S)nc1 , please.
7

Tell me the measured growth inhibition of COC(=O)/C=C1/OC(c2ccc(Br)cc2)=C(Br)C1=O , please.
-13

Tell me the measured growth inhibition of Cc1ccc(S(=O)(=O)N(C)c2ccc(Cl)cc2C2=NCCc3ccccc32)cc1 , please.
-19

Tell me the measured growth inhibition of c1ccc(N2N=C3N(c4ccccc4)C2N3c2ccccc2)cc1 , please.
-41

Tell me the measured growth inhibition of CCOC(=O)[C@]1(Br)CC[C@@]1(Br)C(=O)OCC , please.
-33

Tell me the measured growth inhibition of CCCCCCCCCCCCCC(=O)OC(C)CCC1CCCO1 (centres undefined) , please.
-2

Tell me the measured growth inhibition of O=NN(CCCl)C(=O)NC1CCCCC1 , please.
-1

Tell me the measured growth inhibition of Cc1nc2c(ncn2CCO)c(=O)[nH]1 , please.
-22

Tell me the measured growth inhibition of Cc1cc(N=C2C=CC(=[N+](C)C)C=C2)c(N)cc1N , please.
15

Tell me the measured growth inhibition of CC1C(C#N)(C#N)C(C#N)=C(N)C1(Cl)[N+](=O)[O-] (centres undefined) , please.
9

Tell me the measured growth inhibition of CCC(=O)N(c1ccccc1)C(C)CN1CCC(O)(c2cccc(C(F)(F)F)c2)CC1 (centres undefined) , please.
6
